These measurements were taken from the supplement of paper PMC10567573.

B1: TRAF3IP2 (parent)
chain: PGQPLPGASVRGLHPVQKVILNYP

# Variants of: B1
# TEST METHOD NOTES: protein stability index of a GFP-peptide fusion (GPS, HEK-293T) (PSI 1-6); higher = more stable;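 also: lentivirally expressed fusions sorted by FACS into six bins by GFP to DsRed ratio, PSI derived from sequencing read proportions per bin multiplied by bin number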
# TEST CONDITIONS: c terminus: a fixed tail appended
MEASURED PROPERTY: protein stability index
Answer field: number only, no words.

Example entries and their recorded answers appear below.
Can you share its protein stability index? I mean this variant: `V10K`
2.89

Also need `V16Y` , thanks.
2.04

Also need `N22E` , thanks.
3.51

Also need `K18L` , thanks.
2.31

Also need `Y23E` , thanks.
3.86

Also need `P6Q` , thanks.
3.46

Also need `Q3D` , thanks.
3.15

Also need `N22Y` , thanks.
1.95

Further cases:
Can you share its protein stability index? I mean this variant: `S9I`
2.16

Also need `Q3C` , thanks.
2.71

Also need `S9H` , thanks.
3.5

Also need `L5I` , thanks.
3.34

Also need `P4A` , thanks.
3.17

Also need `P24A` , thanks.
3.16

Also need `P4C` , thanks.
2.73

Also need `P4D` , thanks.
3.03
